Assay: Clearance in rat liver microsomes
Type: ADME, Microsome
Assignment: determine reported CLhep predicted for the given compounds.
One number for each entry, in mL/min/kg.

Would you please look over these solved cases?
[[record]]
smi = "CCNC(=O)Nc1ccc(-c2nc3c(c(N4CCOC[C@@H]4C)n2)[C@@H]2CC[C@H](C3)N2C)cc1"
unit_text = "mL/min/kg"
recorded_measurement = 28

[[record]]
smi = "CCNC(=O)Nc1ccc(-c2nc3c(c(N4CCOC[C@@H]4C)n2)C[C@@H]2CC[C@H]3N2C(C)=O)cc1"
unit_text = "mL/min/kg"
recorded_measurement = 24

[[record]]
smi = "CCNC(=O)Nc1ccc(-c2nc3c(c(N4CCOC[C@@H]4C)n2)C[C@@H]2CC[C@H]3N2C(=O)COC)cc1"
unit_text = "mL/min/kg"
recorded_measurement = 31

[[record]]
smi = "CCNC(=O)Nc1ccc(-c2nc3c(c(N4CCOC[C@@H]4C)n2)C[C@@H]2CC[C@H]3N2C2COC2)cc1"
unit_text = "mL/min/kg"
recorded_measurement = 27

[[record]]
smi = "CCNC(=O)Nc1ccc(-c2nc3c(c(N4CCOC[C@@H]4C)n2)[C@H]2CC[C@@H](C3)N2C)cc1"
unit_text = "mL/min/kg"
recorded_measurement = 18

[[record]]
smi = "CCNC(=O)Nc1ccc(-c2nc3c(c(N4CCOC[C@@H]4C)n2)C[C@@H]2CC[C@H]3N2C)cc1"
unit_text = "mL/min/kg"
recorded_measurement = 22


I would be grateful if you could share the reported CLhep predicted for `CCNC(=O)Nc1ccc(-c2nc3c(c(N4CCOC[C@@H]4C)n2)C[C@@H]2CC[C@H]3N2S(C)(=O)=O)cc1` .
26

Reference source: ChEMBL document CHEMBL2331485
